# target of assay: SARS-COV-2 3CLpro/Mpro protease (Severe acute respiratory syndrome coronavirus 2 (2019-nCoV) (SARS-CoV-2), UniProt P0DTD1)
# assay name: Inhibitory effect on SARS-COV-2 3CLpro/Mpro protease by fluorescence resonance energy transfer
# Type: biochemical
# particulars: activity intervals A-D, read-out: IC50 (nM), Inhibition on SARS-CoV-2 3CLpro/Mpro protease
Measured IC50 accompanies every entry in the list below.

Example molecules with recorded IC50:
[
  {
    "molecule": "CNc1cncc(C(=O)N2C[C@H](Nc3c(C(=O)N4C[C@@H](C)O[C@@H](C)C4)cc(Br)cc3[N+](=O)[O-])C[C@H]2C(=O)N(C)C)c1 [Example 377]",
    "result value": "50 to 100 nM"
  },
  {
    "molecule": "CNc1cncc(C(=O)N2CCC[C@@H](Nc3c(C(=O)N4CCC(C)(C)CC4)cc(Br)cc3[N+](=O)[O-])C2)c1 [Example 252]",
    "result value": "10 to 50 nM"
  },
  {
    "molecule": "CNC(=O)[C@@H]1C[C@@H](Nc2c(C(=O)N3C[C@@H](C)O[C@@H](C)C3)cc(Br)cc2[N+](=O)[O-])CN1C(=O)c1cncc(NC)c1 [Example 366]",
    "result value": "10 to 50 nM"
  },
  {
    "molecule": "CNc1cncc(C(=O)N2CCC[C@@H](Nc3c(C(=O)N4CCC5(CCO5)CC4)cc(Br)cc3[N+](=O)[O-])C2)c1 [Example 285]",
    "result value": "10 to 50 nM"
  },
  {
    "molecule": "O=C(c1cc(Br)cc([N+](=O)[O-])c1N[C@@H]1CCCN(C(=O)c2cncc3ccccc23)C1)N1CCCCC1 [Example 13]",
    "result value": "< 10 nM"
  }
]

Let's switch to this molecule now.
**Query** Look up IC50 of CNc1cncc(C(=O)N2CCC[C@@H](Nc3c(C(=O)N4CCO[C@H](C)C4)cc(Br)cc3[N+](=O)[O-])C2)c1 [Example 35] and report it.
**Result** 10 to 50 nM
